# TESTED SYSTEM: PKCα (Homo sapiens)
# PROTOCOL SUMMARY: cell-free competitive PKC binding assay with [3H]-phorbol dibutyrate
# RUN PARAMETERS: competition with [3H]-PDBu, recombinant human PKC isoform
Recorded measurements of Ki, one per entry
PROPERTY: Ki (nM)

COMPOUND	UNITS SYMBOL	READOUT VALUE
CCCC=CC=CC(=O)OC1C(=CC(=O)OC)CC2CC(C(C)O)OC(=O)CC(O)CC3CC(OC(C)=O)C(C)(C)C(O)(CC4CC(=CC(=O)OCC)CC(C=CC(C)(C)C1(O)O2)O4)O3 (centres unmarked) [SUW217]	nM	9.2
CCCC=CC=CC(=O)OC1C(=CC(=O)OC)CC2CC(C(C)O)OC(=O)CC(O)CC3CC(OC(C)=O)C(C)(C)C(O)(CC4CC(OC(=O)CCc5c[nH]c6ccccc56)CC(C=CC(C)(C)C1(O)O2)O4)O3 (centres unmarked)	nM	5.6
CCCCCC#CC(=O)O[C@H]1/C(=C/C(=O)OC)C[C@H]2C[C@H]([C@@H](C)O)OC(=O)C[C@H](O)C[C@@H]3C[C@H](OC(C)=O)C(C)(C)[C@](O)(C[C@@H]4C[C@@](O)(CO)C[C@H](/C=C/C(C)(C)[C@]1(O)O2)O4)O3	nM	1
CCCC=CC=CC(=O)OC1C(=CC(=O)OC)CC2CC(C(C)O)OC(=O)CC(O)CC3CC(OC(C)=O)C(C)(C)C(O)(CC4CC(=CC(=O)OC)CC(C=CC(C)(C)C1(O)O2)O4)O3 (centres unmarked)	nM	0.54
C=CCOC(=O)/C=C1/C[C@H]2C[C@]3(O)O[C@H](C[C@@H](O)CC(=O)O[C@@H]([C@@H](C)O)C[C@@H]4C/C(=C\C(=O)OC)[C@H](OC(=O)/C=C/C=C/CCC)[C@@](O)(O4)C(C)(C)/C=C/[C@@H](C1)O2)C[C@H](OC(C)=O)C3(C)C	nM	1.8
CCC/C=C/C=C/C(=O)O[C@H]1/C(=C/C(=O)OC)C[C@H]2C[C@H]([C@@H](C)O)OC(=O)C[C@H](O)C[C@@H]3C[C@H](OC(C)=O)C(C)(C)[C@](O)(C[C@@H]4C/C(=C/C(=O)OC)C[C@H](/C=C/C(C)(C)[C@]1(O)O2)O4)O3 [Bryostatin 1, reference compound]	nM	0.8
CCCCCCCC(=O)O[C@H]1/C(=C/C(=O)OC)C[C@H]2C[C@H]([C@@H](C)O)OC(=O)C[C@H](O)C[C@@H]3C[C@H](OC(C)=O)C(C)(C)[C@](O)(C[C@@H]4C[C@@H](C)C[C@H](/C=C/C(C)(C)[C@]1(O)O2)O4)O3	nM	5.8
CCC/C=C/C=C/C(=O)O[C@H]1/C(=C/C(=O)OC)C[C@H]2C[C@H]([C@@H](C)O)OC(=O)C[C@H](O)C[C@@H]3C[C@H](OC(C)=O)C(C)(C)[C@](O)(C[C@@H]4C[C@H](OC(=O)CN(C)C)C[C@H](/C=C/C(C)(C)[C@]1(O)O2)O4)O3	nM	98
CCCC=CC=CC(=O)OC1C(=CC(=O)OC)CC2CC(C(C)O)OC(=O)CC(O)CC3CC(OC(C)=O)C(C)(C)C(O)(CC4CC(OC(=O)CC56CC7CC(CC(C7)C5)C6)CC(C=CC(C)(C)C1(O)O2)O4)O3 (centres unmarked)	nM	1.6
CCC/C=C/C=C/C(=O)O[C@H]1/C(=C/C(=O)OC)C[C@H]2C[C@H]([C@@H](C)O)OC(=O)C[C@H](O)C[C@@H]3C[C@H](OC(C)=O)C(C)(C)[C@](O)(C[C@@H]4C[C@@H](OC(C)=O)C[C@H](/C=C/C(C)(C)[C@]1(O)O2)O4)O3	nM	2
CCCC=CC=CC(=O)OC1C(=CC(=O)OC)CC2CC(C(C)O)OC(=O)CC(O)CC3CC(OC(C)=O)C(C)(C)C(O)(CC4CC(=CC(=O)OCC)CC(C=CC(C)(C)C1(O)O2)O4)O3 (centres unmarked) [SUW218]	nM	7.1
C=CCOC(=O)/C=C1\C[C@H]2C[C@]3(O)O[C@H](C[C@@H](O)CC(=O)O[C@@H]([C@@H](C)O)C[C@@H]4C/C(=C\C(=O)OC)[C@H](OC(=O)/C=C/C=C/CCC)[C@@](O)(O4)C(C)(C)/C=C/[C@@H](C1)O2)C[C@H](OC(C)=O)C3(C)C	nM	4.2
CCC/C=C/C=C/C(=O)O[C@H]1/C(=C/C(=O)OC)C[C@H]2C[C@H]([C@@H](C)O)OC(=O)C[C@H](O)C[C@@H]3C[C@H](OC(C)=O)C(C)(C)[C@](O)(C[C@@H]4C/C(=C\C(=O)OCc5ccccc5)C[C@H](/C=C/C(C)(C)[C@]1(O)O2)O4)O3	nM	16
CCC/C=C/C=C/C(=O)O[C@H]1/C(=C/C(=O)OC)C[C@H]2C[C@H]([C@@H](C)O)OC(=O)C[C@H](O)C[C@@H]3C[C@H](OC(C)=O)C(C)(C)[C@](O)(C[C@@H]4C[C@H](OC(C)=O)C[C@H](/C=C/C(C)(C)[C@]1(O)O2)O4)O3	nM	1

====

Recorded measurements of pKi, one per entry
# TESTED SYSTEM: PKCδ (Homo sapiens, UniProt Q05655)
# Construct: purchased Invitrogen
# Sequence (Q05655 whole entry): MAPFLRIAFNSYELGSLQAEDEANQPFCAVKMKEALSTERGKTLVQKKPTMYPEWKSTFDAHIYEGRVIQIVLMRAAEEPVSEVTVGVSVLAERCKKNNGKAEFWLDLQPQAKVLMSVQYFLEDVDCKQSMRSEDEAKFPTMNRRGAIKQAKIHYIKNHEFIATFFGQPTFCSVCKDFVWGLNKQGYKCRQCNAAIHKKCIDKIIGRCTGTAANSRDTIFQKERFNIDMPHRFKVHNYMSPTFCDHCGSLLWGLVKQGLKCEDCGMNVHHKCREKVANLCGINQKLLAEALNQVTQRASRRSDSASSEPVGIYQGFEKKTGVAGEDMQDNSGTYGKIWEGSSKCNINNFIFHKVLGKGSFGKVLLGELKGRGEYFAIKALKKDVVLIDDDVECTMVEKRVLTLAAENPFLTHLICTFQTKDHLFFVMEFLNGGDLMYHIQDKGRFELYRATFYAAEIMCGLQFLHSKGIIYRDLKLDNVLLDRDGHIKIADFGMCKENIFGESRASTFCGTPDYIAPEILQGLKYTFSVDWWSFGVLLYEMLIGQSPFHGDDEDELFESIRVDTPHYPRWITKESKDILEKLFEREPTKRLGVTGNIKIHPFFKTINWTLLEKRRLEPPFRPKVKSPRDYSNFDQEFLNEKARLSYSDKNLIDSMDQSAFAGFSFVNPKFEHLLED
# PROTOCOL SUMMARY: cell-free competitive PKC binding assay with [3H]-phorbol dibutyrate
# RUN PARAMETERS: competition with [3H]-PDBu, recombinant human PKC isoform
# Experimental: Because a prerequisite for PKC pathway involvement is binding to PKC, compounds were initially evaluated for PKC affinity in a cell-free competitive binding assay with tritiated phorbol dibutyrate ([^3H]-PDBu). Assays were performed with representative members of both the conventional (PKCα) and novel (PKCδ) PKC families. […] Triplicate data points were obtained for each analog concentration. […] Maximal ^3H-PDBu binding was assessed in triplicate by substitution of the analog compound with 20 μL DMSO. […]
pKi: −log10 of the molar value.

MOLECULE	pKi
CCCCCCCC(=O)O[C@H]1/C(=C/C(=O)OC)C[C@H]2C[C@H]([C@@H](C)O)OC(=O)C[C@H](O)C[C@@H]3C[C@H](OC(C)=O)C(C)(C)[C@](O)(C[C@@H]4C[C@@H](C)C[C@H](/C=C/C(C)(C)[C@]1(O)O2)O4)O3	8.18
CCC/C=C/C=C/C(=O)O[C@H]1/C(=C/C(=O)OC)C[C@H]2C[C@H]([C@@H](C)O)OC(=O)C[C@H](O)C[C@@H]3C[C@H](OC(C)=O)C(C)(C)[C@](O)(C[C@@H]4C/C(=C\C(=O)OCc5ccccc5)C[C@H](/C=C/C(C)(C)[C@]1(O)O2)O4)O3	7.82
CCCC=CC=CC(=O)OC1C(=CC(=O)OC)CC2CC(C(C)O)OC(=O)CC(O)CC3CC(OC(C)=O)C(C)(C)C(O)(CC4CC(OC(=O)CC56CC7CC(CC(C7)C5)C6)CC(C=CC(C)(C)C1(O)O2)O4)O3 (centres unmarked)	8.46
CCCC=CC=CC(=O)OC1C(=CC(=O)OC)CC2CC(C(C)O)OC(=O)CC(O)CC3CC(OC(C)=O)C(C)(C)C(O)(CC4CC(=CC(=O)OCC)CC(C=CC(C)(C)C1(O)O2)O4)O3 (centres unmarked) [SUW217]	8.03
C=CCOC(=O)/C=C1/C[C@H]2C[C@]3(O)O[C@H](C[C@@H](O)CC(=O)O[C@@H]([C@@H](C)O)C[C@@H]4C/C(=C\C(=O)OC)[C@H](OC(=O)/C=C/C=C/CCC)[C@@](O)(O4)C(C)(C)/C=C/[C@@H](C1)O2)C[C@H](OC(C)=O)C3(C)C	8.92
CCCCCC#CC(=O)O[C@H]1/C(=C/C(=O)OC)C[C@H]2C[C@H]([C@@H](C)O)OC(=O)C[C@H](O)C[C@@H]3C[C@H](OC(C)=O)C(C)(C)[C@](O)(C[C@@H]4C[C@@](O)(CO)C[C@H](/C=C/C(C)(C)[C@]1(O)O2)O4)O3	8.39
CCCC=CC=CC(=O)OC1C(=CC(=O)OC)CC2CC(C(C)O)OC(=O)CC(O)CC3CC(OC(C)=O)C(C)(C)C(O)(CC4CC(OC(=O)CCc5c[nH]c6ccccc56)CC(C=CC(C)(C)C1(O)O2)O4)O3 (centres unmarked)	8.14
CCC/C=C/C=C/C(=O)O[C@H]1/C(=C/C(=O)OC)C[C@H]2C[C@H]([C@@H](C)O)OC(=O)C[C@H](O)C[C@@H]3C[C@H](OC(C)=O)C(C)(C)[C@](O)(C[C@@H]4C[C@@H](OC(C)=O)C[C@H](/C=C/C(C)(C)[C@]1(O)O2)O4)O3	8.27

====

# TESTED SYSTEM: PKCδ (Homo sapiens, UniProt Q05655)
# PROTOCOL SUMMARY: cell-free competitive PKC binding assay with [3H]-phorbol dibutyrate
# RUN PARAMETERS: competition with [3H]-PDBu, recombinant human PKC isoform
pKi: −log10 of the molar value.

MOLECULE	pKi
CCC/C=C/C=C/C(=O)O[C@H]1/C(=C/C(=O)OC)C[C@H]2C[C@H]([C@@H](C)O)OC(=O)C[C@H](O)C[C@@H]3C[C@H](OC(C)=O)C(C)(C)[C@](O)(C[C@@H]4C[C@H](OC(C)=O)C[C@H](/C=C/C(C)(C)[C@]1(O)O2)O4)O3 [SUW206]	8.89
C=CCOC(=O)/C=C1\C[C@H]2C[C@]3(O)O[C@H](C[C@@H](O)CC(=O)O[C@@H]([C@@H](C)O)C[C@@H]4C/C(=C\C(=O)OC)[C@H](OC(=O)/C=C/C=C/CCC)[C@@](O)(O4)C(C)(C)/C=C/[C@@H](C1)O2)C[C@H](OC(C)=O)C3(C)C [SUW230]	8.03
CCC/C=C/C=C/C(=O)O[C@H]1/C(=C/C(=O)OC)C[C@H]2C[C@H]([C@@H](C)O)OC(=O)C[C@H](O)C[C@@H]3C[C@H](OC(C)=O)C(C)(C)[C@](O)(C[C@@H]4C[C@H](OC(=O)CN(C)C)C[C@H](/C=C/C(C)(C)[C@]1(O)O2)O4)O3 [SUW211]	7.57
CCCC=CC=CC(=O)OC1C(=CC(=O)OC)CC2CC(C(C)O)OC(=O)CC(O)CC3CC(OC(C)=O)C(C)(C)C(O)(CC4CC(=CC(=O)OCC)CC(C=CC(C)(C)C1(O)O2)O4)O3 (stereo not shown) [SUW218]	8.18
